# assay-system: T1, human IL-1β (human, UniProt P01584 117-269)
# T1 construct: mature; the summary says that the SPR values are for mature human IL-1β; also called mature human IL-1β; Interleukin-1β
# procedure-details: SPR (BIAcore), antibody captured on protein A, human IL-1β flowed; HBS-EP pH 7.4, 25 C
Each entry below lists one item and its recorded Kd value.
measured-attribute: Kd (pM)

• W13 (IgG1) (antibody, V domains shown, humanized, IgG1 kappa) VH: QVQLVQSGAEVKKPGSSVKVSCKASGYTFDRYWIEWVRQAPGQGLEWMGEILPGSGDINYNEKFKGRVTITADKSTSTAYMELSSLRSEDTAVYYCARMYYDYDQGFDYWGQGTLVTVSS VL: DIQMTQSPSSLSASVGDRVTITCKFSQDIDRFLTWFQQKPGKAPKSLIYRVKRLVDGVPSRFSGSGSGTDFTLTISSLQPEDFATYYCIQYDEFPYTFGGGTKVEIKR = 2.8
• W20 (IgG1) (antibody, V domains shown, humanized, IgG1 kappa) VH: QVQLVQSGAEVKKPGSSVKVSCKASGYTFDRYWIEWVRQAPGQGLEWMGEILPGSGDINYNEKFKGRVTITADKSTSTAYMELSSLRSEDTAVYYCARMYYDYDQGFDYWGQGTLVTVSS VL: DIQMTQSPSSLSASVGDRVTITCKFSQDIDRFLSWFQQKPGKAPKSLIYRVKRLVDGVPSRFSGSGSGTDFTLTISSLQPEDFATYYCVQYDEFPYTFGGGTKVEIKR = 2.7
• U43 (IgG1) (antibody, V domains shown, humanized, IgG1 kappa) VH: QVQLVQSGAEVKKPGSSVKVSCKASGYTFDRYWIEWVRQAPGQGLEWMGEILPGSGDINYNEKFKGRVTITADKSTSTAYMELSSLRSEDTAVYYCARMYYDYDQGFSLWGQGTLVTVSS VL: DIQMTQSPSSLSASVGDRVTITCKASQDIDRFLSWFQQKPGKAPKSLIYRVKRLVDGVPSRFSGSGSGTDFTLTISSLQPEDFATYYCVQYDEFPYTFGGGTKVEIKR = 4.7
• W18 (IgG1) (antibody, V domains shown, humanized, IgG1 kappa) VH: QVQLVQSGAEVKKPGSSVKVSCKASGYTFDRYWIEWVRQAPGQGLEWMGEILPGSGTINYNEKFKGRVTITADKSTSTAYMELSSLRSEDTAVYYCARMYYDYDQGFDNWGQGTLVTVSS VL: DIQMTQSPSSLSASVGDRVTITCKFSQDIDRFLSWFQQKPGKAPKSLIYRVKRLVDGVPSRFSGSGSGTDFTLTISSLQPEDFATYYCVQYDEFPYTFGGGTKVEIKR = 4.2

Each recorded value in this set is attributed to patent US20060140932A1.
